Can you tell me Kd for the items I'm about to list?
B1: scFv; the commonest letter at each place (parent)
chain 1: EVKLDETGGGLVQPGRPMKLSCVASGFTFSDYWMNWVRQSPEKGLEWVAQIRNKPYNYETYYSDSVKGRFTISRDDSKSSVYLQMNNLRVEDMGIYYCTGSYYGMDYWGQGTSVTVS
chain 2: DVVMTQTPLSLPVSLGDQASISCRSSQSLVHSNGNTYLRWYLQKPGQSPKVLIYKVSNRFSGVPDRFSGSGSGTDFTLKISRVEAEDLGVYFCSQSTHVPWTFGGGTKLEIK

# Variants of: B1
# assay-overview: Kd (Tite-Seq)
# measurement-setup: with fluorescein; format: scFv 4-4-20, heavy + light

Problem: For the variant chain 1 F29C M34K W36I , report Kd.
Result: ≥ 10 µM

Problem: For the variant chain 1 Y102L Y107C G109A , report Kd.
Result: ≥ 10 µM

Problem: Give me measured Kd, please, for this variant: chain 1 D31W W33G
Result: 9.02 µM

Problem: // Input: chain 1 G104L G109K . Output its Kd only.
Result: ≥ 10 µM

Problem: Please report Kd for the following variant: chain 1 D31E V37L
Result: ≥ 10 µM

Problem: Find the measured Kd of chain 1 Y107A G109Q and report it.
Result: ≥ 10 µM

Problem: Fill in reported Kd for this entry: chain 1 D31V W33D
Result: ≥ 10 µM

Problem: Look up Kd of chain 1 Y103I W108C and report it.
Result: 3.74 µM

Problem: Provide one value: measured Kd of chain 1 T28C D31F M34A
Result: ≥ 10 µM

Problem: Supply measured Kd of chain 1 Y102E M105A in your reply.
Result: ≥ 10 µM

Problem: Fill in reported Kd for this entry: chain 1 Y32C N35M
Result: ≥ 10 µM

Problem: Quote Kd reported for chain 1 Y32P W33C please.
Result: 2.47 µM

Problem: Give reported Kd value for chain 1 S101L Y103S M105A
Result: ≥ 10 µM

Problem: Return Kd (reported value) for this variant: chain 1 Y102L Y107S
Result: 5.96 µM

Problem: Fill in reported Kd for this entry: chain 1 T28G Y32M
Result: ≥ 10 µM

Problem: For chain 1 S30D M34F , write its Kd.
Result: 0.00142 µM

Problem: Specify reported Kd for the variant shown: chain 1 F29I N35R
Result: ≥ 10 µM

Problem: Return Kd (reported value) for this variant: chain 1 Y32G M34E
Result: ≥ 10 µM

Problem: # return recorded Kd for input chain 1 G100A S101L
Result: ≥ 10 µM

Problem: Fill in reported Kd for this entry: chain 1 N35D
Result: ≥ 10 µM

Problem: Check the records and state Kd for chain 1 S101L Y103R
Result: ≥ 10 µM

Problem: Write down Kd measured for item chain 1 G104M G109L
Result: ≥ 10 µM

Problem: Give the reported Kd for this variant. chain 1 M34D
Result: ≥ 10 µM

Problem: Given chain 1 N35L V37P , respond with its Kd.
Result: ≥ 10 µM

Problem: Fill in Kd for record chain 1 G100P G104I
Result: ≥ 10 µM
